Numbers sourced from the domain aggregation screens of Martell et al. (2025).

Kindly state soluble fraction (log2) for each of the entries shown.
experiment: soluble fraction after stress (log2 fold change); higher = more stays soluble; pooled small domains, quantitative proteomics; conditions: stress: 75 degC;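 also: 20 min heating vs room temperature control held 20 min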
# answer = number (no unit)

INPUT: Recorded soluble fraction (log2) of HMSISDEDFAKLLDFVKEKWDAGELDNAEDIKAAISEGEKEFGVSLDESTRTTLASALQQLN , please.
OUTPUT: 0.274

INPUT: Recorded soluble fraction (log2) of HMASPKEALWRSLAEEPDTWWDNRERKSQPGANPRSPDFKHKESGEALWIESRDTPTWVLETL , please.
OUTPUT: -0.196

INPUT: Recorded soluble fraction (log2) of HMEQFRENIVRIYMEIDDYENGAKFLEMGNNRDASFYELAGDFYKYFGENELANENYDLAISA , please.
OUTPUT: -0.629

INPUT: Recorded soluble fraction (log2) of HMETKIKFQIQTLDELNIRKVADWDAKAITTVKKGQILDVVDTVAAKNGSTPMYRLESGLYITASPKYVKK , please.
OUTPUT: -1.16
